Property: viability; scope: individual molecules
EXPERIMENTAL DETAILS: growth suppression of beta-catenin knockout HCT116, pilot screen, human colon tumor cells (AID 823);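 further: 0% = wells killed by 20 µM Hyamine and 100% = untreated DMSO cell wells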
CONDITIONS: CellTiter-Glo, 60 h, at 10 µM, active compounds read low
Records with an inconclusive call do not appear.
Return type: number; implicit unit %.

Worked cases, viability given:
COCc1cc(C)nc2sc3c(=O)n(Cc4ccco4)nnc3c12 ... 100
COc1ccc(Cc2nc(-c3ccc(-n4cccc4)cc3)no2)cc1OC ... 28
O=C(CC1Oc2ccccc2NC1=O)NC1CCCC1 (stereo not drawn) ... 103
Cc1nnc(SCC(=O)Nc2ccc3c(c2)OCO3)o1 ... 102
CCOC(=O)CNC(=O)c1c2c(nc3ccccc13)CCCC2 ... 95.4

Answer with reported viability of CN1CCN(C(=O)c2ccc3c(c2)N(Cc2cccc(Cl)c2)C(=O)c2ccccc2S3=O)CC1 (stereo not drawn)
102

Answer with reported viability of `N#Cc1ccccc1Cn1c(=O)n(-c2ccc(CC(=O)NCc3ccco3)cc2)c(=O)c2sccc21`
97.8

====

EXPERIMENTAL DETAILS: growth suppression of PTEN-deleted HCT116, pilot screen, cell-based, HCT116 clonal line, CellTiter-Glo (AID 824);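 further: 0% = 20 µM Hyamine control and 100% = vehicle cell control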
CONDITIONS: 60 h, at 10 µM, active compounds read low
Results filed as inconclusive are left out.
OBSERVATION TYPE: viability (%)
Return type: number; implicit unit %.

Worked cases, viability given:
CC1CCN(c2ncnc3c2cnn3-c2ccccc2)CC1 ... 87.3
CCN1CCN(c2cc(C)c3cc(NC(=O)c4ccncc4)ccc3n2)CC1 ... 79.5
Cc1nnc(NC(=O)CSc2nc3c(c(=O)n2CCc2ccccc2)SC(C)C3)s1 (stereo not drawn) ... 103
COC(=O)c1sc2ccccc2c1N ... 94.6
COc1ccc(N2C(=O)CC(NCc3cccc(F)c3)C2=O)cc1 (stereo not drawn) ... 98

Answer with reported viability of `O=C(CCCC1=NS(=O)(=O)c2ccccc2N1)N1CCN(c2ccc(Cl)cc2)CC1`
78.3

Answer with reported viability of `O=C(CN1CCN(C(=O)c2ccco2)CC1)Nc1ccccc1-c1ccccc1`
86.1

Answer with reported viability of `CCOc1ccccc1NC(=O)CN1C(=O)COc2ccc(Cl)cc21`
84.2

Answer with reported viability of `CC(=O)n1c2ccccc2c2c1c1ccccc1n2C`
82.6

Answer with reported viability of CN(C)C1NC(=O)c2cc(-c3ccccc3)sc2N1 (stereo not drawn)
104

====

Property: viability; scope: individual molecules
EXPERIMENTAL DETAILS: growth suppression of beta-catenin knockout HCT116, pilot screen, human colon tumor cells (AID 823);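 further: 0% = wells killed by 20 µM Hyamine and 100% = untreated DMSO cell wells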
CONDITIONS: CellTiter-Glo, 60 h, at 10 µM, active compounds read low
Results filed as inconclusive are left out. Calls of active or inactive are those of the source.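 Rule for the calls: active = cell viability at or below a set limit in both duplicate runs, the limit being the all-compound median minus 4 SD (cut at about 23% in these data, passing the limit was not always enough); inconclusive = no clear call, values can overlap the other calls; inactive = the rest.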

Cc1ccccc1Cn1c(CN2CCN(C(=O)c3ccco3)CC2)nc2c1c(=O)n(C)c(=O)n2C ... 94.1% (inactive)
Cc1cc2cc(CCNC(=O)c3c(-c4ccccc4Cl)noc3C)c(=O)[nH]c2cc1C ... 94.9% (inactive)
COc1cc2c(C(=O)NCc3ccccn3)cn(CC(C)C)c(=O)c2cc1OC ... 104% (inactive)
O=C(Cn1cc2c(n1)CCCC2)N1CCCC1 ... 95.5% (inactive)

Answer with reported viability of CCc1ccc(C2CC(=O)NC(SCC(=O)OC(C)C)=C2C#N)cc1 (stereo not given)
78.9% (inactive)
